- Test system: KM12
- measurement notes: Cytotoxicity against human KM12 cells assessed as cell viability at 10 uM incubated for 48 hrs by sulforhodamine B assay relative to control
- Type: functional
- recorded conditions: read-out: Activity
metric name: viability at 10 µM (%)

[[record]]
substance_smiles = "O=S(=O)(NCCCNc1nccc(-c2c(-c3cccc(F)c3)nc3sccn23)n1)c1cccc2ccccc12"
test_target = "KM12"
metric_name = "viability at 10 µM"
value = 26

[[record]]
substance_smiles = "O=S(=O)(NCCCNc1nccc(-c2c(-c3cccc(F)c3)nc3sccn23)n1)c1ccc(Br)cc1"
test_target = "KM12"
metric_name = "viability at 10 µM"
value = 46.7

[[record]]
substance_smiles = "O=C(NCCNc1nccc(-c2c(-c3cccc(F)c3)nc3sccn23)n1)c1ccc(C(F)(F)F)cc1"
test_target = "KM12"
metric_name = "viability at 10 µM"
value = 75.1

[[record]]
substance_smiles = "O=C(NCCCNc1nccc(-c2c(-c3cccc(F)c3)nc3sccn23)n1)C1CCCCC1"
test_target = "KM12"
metric_name = "viability at 10 µM"
value = 84.5

[[record]]
substance_smiles = "O=S(=O)(NCCCNc1nccc(-c2c(-c3cccc(F)c3)nc3sccn23)n1)c1ccc(C(F)(F)F)cc1"
test_target = "KM12"
metric_name = "viability at 10 µM"
value = 88.5

[[record]]
substance_smiles = "O=S(=O)(NCCNc1nccc(-c2c(-c3cccc(F)c3)nc3sccn23)n1)c1ccc(Cl)cc1"
test_target = "KM12"
metric_name = "viability at 10 µM"
value = 47.7

[[record]]
substance_smiles = "O=S(=O)(NCCNc1nccc(-c2c(-c3cccc(F)c3)nc3sccn23)n1)c1cccc2ccccc12"
test_target = "KM12"
metric_name = "viability at 10 µM"
value = 85

[[record]]
substance_smiles = "O=S(=O)(NCCCNc1nccc(-c2c(-c3cccc(F)c3)nc3sccn23)n1)c1ccc(F)cc1"
test_target = "KM12"
metric_name = "viability at 10 µM"
value = 62.7

[[record]]
substance_smiles = "O=S(=O)(NCCCNc1nccc(-c2c(-c3cccc(F)c3)nc3sccn23)n1)c1ccc(Cl)cc1"
test_target = "KM12"
metric_name = "viability at 10 µM"
value = 72.7

[[record]]
substance_smiles = "O=C(NCCNc1nccc(-c2c(-c3cccc(F)c3)nc3sccn23)n1)c1c(F)cccc1F"
test_target = "KM12"
metric_name = "viability at 10 µM"
value = 47.7

[[record]]
substance_smiles = "O=C(NCCNc1nccc(-c2c(-c3cccc(F)c3)nc3sccn23)n1)c1ccccc1"
test_target = "KM12"
metric_name = "viability at 10 µM"
value = 56.6

[[record]]
substance_smiles = "O=S(=O)(NCCNc1nccc(-c2c(-c3cccc(F)c3)nc3sccn23)n1)c1ccc(C(F)(F)F)cc1"
test_target = "KM12"
metric_name = "viability at 10 µM"
value = 80.6

[[record]]
substance_smiles = "O=S(=O)(NCCNc1nccc(-c2c(-c3cccc(F)c3)nc3sccn23)n1)c1ccc(Br)cc1"
test_target = "KM12"
metric_name = "viability at 10 µM"
value = 42.5

[[record]]
substance_smiles = "O=S(=O)(NCCCNc1nccc(-c2c(-c3cccc(F)c3)nc3sccn23)n1)c1cccc(F)c1"
test_target = "KM12"
metric_name = "viability at 10 µM"
value = 29.9

[[record]]
substance_smiles = "O=C(NCCNc1nccc(-c2c(-c3cccc(F)c3)nc3sccn23)n1)C1CCCCC1"
test_target = "KM12"
metric_name = "viability at 10 µM"
value = 81.6

[[record]]
substance_smiles = "O=S(=O)(NCCCNc1nccc(-c2c(-c3cccc(F)c3)nc3sccn23)n1)c1ccc(O)cc1"
test_target = "KM12"
metric_name = "viability at 10 µM"
value = 27.4

[[record]]
substance_smiles = "Cc1ccc(S(=O)(=O)NCCCNc2nccc(-c3c(-c4cccc(F)c4)nc4sccn34)n2)cc1"
test_target = "KM12"
metric_name = "viability at 10 µM"
value = 67.3

[[record]]
substance_smiles = "O=C(NCCCNc1nccc(-c2c(-c3cccc(F)c3)nc3sccn23)n1)c1ccc(C(F)(F)F)cc1"
test_target = "KM12"
metric_name = "viability at 10 µM"
value = 85.4


Data provenance is ChEMBL document CHEMBL4665642.
